# System: M14 melanoma
# protocol-notes: NCI tumour cell line growth inhibition, 48 h
measurement-label: TGI

Reference set, count: 5
COC(=O)C(C(=O)C(=O)Nc1nc(=S)[nH][nH]1)c1csc(N)n1 (stereo not given) | > 100 µM
CCc1ccccc1N1C(=O)C(=O)C(c2nc3ccccc3s2)C(=O)C1=O | > 100 µM
O=C1Cc2ccccc2N1/N=C\c1ccc([N+](=O)[O-])cc1 | > 100 µM
Clc1ccc(-c2noc(CN3CCCCC3)n2)cc1 | > 100 µM
O=C(/C=C/c1cccc2ccccc12)c1ccccc1 | 32.9 µM

// input: 3 compounds below; output: TGI for each
1. CCOC(=O)C(CS)NC(=O)CCCCCCCC(=O)O (stereo not given)
2. CCOC(=O)c1ccc2c(c1)c1c(C)c3cnccc3c(C)c1n2C
3. C/C(Cc1ccc(Cl)cc1)=C(\c1ccc(OCCN2CCCCCC2)cc1)c1ccc(OC(=O)c2ccccc2)cc1

["> 100 µM", "0.383 µM", "2.36 µM"]

---

# Test system: SK-OV-3 ovarian
# protocol-notes: NCI tumour cell line growth inhibition, 48 h
measurement-label: TGI

The following compounds have reported results that may help.
CC(C)C(O)(C(=O)OCN1C(=O)C2C3C=CC(C2C1=O)C1C2C(=O)N(COC(=O)C(O)(C(C)C)C(C)O)C(=O)C2C31)C(C)O (centres undefined) | > 100 µM
CCOC(=O)NN(C(=O)OCC)C(=C(c1ccccc1)N1CCOCC1)N(NC(=O)OCC)C(=O)OCC | > 100 µM
COc1cc(/C=C2\N=C(c3ccccc3)N(c3cc4cc(Sc5ccccc5)ccc4[nH]3)C2=O)cc(OC)c1OC | > 75 µM

Give TGI for each listed item.
1. CCSc1nc2[nH]c(=S)[nH]c(=S)c2c(-c2ccc(OC)c(OC)c2)c1C#N
2. CCc1nc(N)nc(N)c1-c1ccc2c(c1)nnn2CCc1ccccc1
3. COc1ccc(NCc2cc(OC)cc(OC)c2)cc1
4. COC(=O)C1=C(OC(=O)/C(=C/c2ccccc2)c2ccccc2)C(C(=O)OC)[C@@]2(O)[C@@H](C(=O)OC)[C@H](C)C[C@@H]1[C@@H]2C(=O)OC (some centres undefined)
5. NS(=O)(=O)c1ccc(N=Nc2ncccc2O)cc1
6. Nc1ccc(N)c2c1C(=O)c1ccccc1C2=O

["> 50 µM", "> 75.2 µM", "> 95.5 µM", "> 100 µM", "> 100 µM", "> 100 µM"]

---

# System: HOP-62 NSCLC
# protocol-notes: NCI tumour cell line growth inhibition, 48 h
measurement-label: TGI (µM)
Numbers only, in µM.

Cc1c2ccccc2c(C)n2c1nc1cc3ccccc3cc12 | 2.76

Consider now this further compound.
Hello, please tell me recorded TGI for this one: COc1ccc(C(O)c2cc3c(N)c(C(=O)Nc4ccc(Br)cc4)sc3nc2C)cc1 (stereo not given) 11

---

Record: GI50 reported on SNB-75 CNS.

Below, each entry is followed by its recorded GI50 result.
CCC[CH2][Sn]1([CH2]CCC)[O]CC(c2ccccn2)C[O]1 | 22.5 µM
Cc1nc2ccccn2c1NC(=O)NNC(=S)Nc1ccc(Cl)cc1 | > 100 µM
Cn1cc(C2=C(c3cn(C)c4ccc(OCc5ccccc5)cc34)C(=O)NC2=O)c2ccccc21 | > 25 µM
O=C1OC(c2cccc(C(F)(F)F)c2)(c2cccc(C(F)(F)F)c2)c2ccc3ccccc3c21 | > 100 µM

Pending compound:
Please report GI50 for the following compound: C=C1C(=O)c2sccc2C(c2ccc(OC)c(OC)c2)C1COC(C)=O (stereo not given) 8.39 µM

---

# System: PC-3 prostate
# protocol-notes: NCI tumour cell line growth inhibition, 48 h
Assign TGI to each entry below.

O=C(NNc1cn[nH]c(=O)n1)c1cccc2nc3ccccc3nc12 | > 100 µM
COc1cc2c(cc1OC)C1c3ccccc3CCCN1CC2 (centres undefined) | > 100 µM

Return reported TGI values for all items listed beneath this line.
1. COc1ccc2c(c1)SC1=NNC(Cl)C(=O)N12 (centres undefined)
2. Cc1cn(C(=O)NC23CC4CC(CC(C4)C2)C3)c(=O)[nH]c1=O

["> 100 µM", "> 100 µM"]

---

# Tested on: OVCAR-3 ovarian
# protocol-notes: NCI tumour cell line growth inhibition, 48 h
measurement-label: TGI

Use these answered entries as a reference point.
CCOC(=O)C(CS)NC(=O)CCCCCCCC(=O)O (stereo not given) | > 100 µM
CCOC(=O)Nc1nc2cc(OC)c(OC)c(OC)c2s1 | > 100 µM
O=c1[nH]cnc2[nH]cc(CN3CCCCC3)c12 | > 100 µM

The following molecules each have a reported value; give each one's TGI.
1. C[Si](C)(C)/N=C1\N2C(=NC1(C(F)(F)F)C(F)(F)F)Sc1ccccc12
2. CC(NS(=O)(=O)c1ccc(Cl)cc1)C(=O)O (stereo not given)

1: > 50 µM; 2: > 100 µM

---

# Test system: TK-10 renal
# protocol-notes: NCI tumour cell line growth inhibition, 48 h
Where a SMILES comes first, the peptide text is derived from it. The star is where a group is joined. Fmoc = O=C(OCC1c2ccccc2-c2ccccc21)*; Boc = CC(C)(C)OC(=O)*; OtBu = CC(C)(C)O*
Give TGI for every item shown.

Example results:
OC1(c2ccccc2)CSc2ncnn21 (stereo unspecified) | > 100 µM
COc1ccc(/C=C2/SC(c3ccccc3)N(NC(=O)CCCCCCCCC(=O)NN3C(=O)/C(=C\c4ccc(OC)c(OC)c4)SC3c3ccccc3)C2=O)cc1OC (stereo unspecified) | > 100 µM
CC(C)(C)OC(=O)CCC(NC(=O)OCC1c2ccccc2-c2ccccc21)C(=O)NC(Cc1c[nH]c2ccccc12)C(=O)NC(CCCCNC(=O)OC(C)(C)C)C(=O)N1CCCC1C(=O)NCC(N)=O (stereo unspecified) (Fmoc-E(OtBu)WK(Boc)PG-NH2; configuration not given here) | > 100 µM
C/C(=N/NC(=S)N1CCCCC1)c1cccc(/C(C)=N\NC(=S)N2CCCCC2)n1 | 3.69 µM
CCCCCC(=O)OCCOCCOCCOCCOCCOCc1ccccc1 | > 100 µM

Give the observed TGI of CCc1cccc(CC)c1NC(=O)C(=O)Cc1nc2ccccc2o1 for TK-10 renal. > 100 µM

---

# System: NCI-H522 lung
# protocol-notes: NCI tumour cell line growth inhibition, 48 h
Assign TGI to each entry below.

Would you please look over these solved cases?
CC1=CP(=O)(OC(C)C)CC(C)=C1Cl (centres undefined) | > 100 µM
COC(=O)CCC(NC(=S)N/N=C(\C)c1ccco1)C(=O)OC (centres undefined) | > 100 µM
Clc1ccc(Cl)c(NNc2cc(Cl)ccc2Cl)c1 | > 10 µM

Kindly review the next molecule as well.
Name the recorded TGI of the item CC(C)=C1C(=O)c2c(Cl)sc(Cl)c2C1=O in your answer. 32.6 µM

---

# Tested on: HCT-15 colon
# protocol-notes: NCI tumour cell line growth inhibition, 48 h
For each entry below, report its TGI value.

Below are 3 compounds. Give each one its TGI.
1. c1ccc(N2CCN(CN3CCN(c4ccccc4)C3)C2)cc1
2. O=c1c(Br)c(-c2ccccc2)[nH]c2ccccc12
3. COc1cc(Nc2nc3c(N)cc(C(F)(F)F)cc3nc2-c2ccccc2)cc(OC)c1OC

["> 100 µM", "> 100 µM", "> 100 µM"]

---

# System: COLO 205 colon
# protocol-notes: NCI tumour cell line growth inhibition, 48 h
measurement-label: TGI

Please state TGI for every compound in the list that follows.
1. O=C(N/N=C\c1c(O)ccc2ccccc12)c1ccncc1
2. Cc1c(C)c(S(=O)(=O)N(CCCCCCN)OCCCN)c(C)c2c1OC(C)(C)CC2
3. CCOC(=O)C1=CC(C)(C(=O)OCC)Nc2c(nc(SC)[nH]c2=O)N1 (centres undefined)
4. COc1ccccc1N1CCN(CC(O)COc2c(Br)c(Br)c(Br)c3c2OC(C)(C)C3)CC1 (centres undefined)

1: > 14.2 µM; 2: > 26.5 µM; 3: > 10 µM; 4: 30.4 µM

---

# System: SNB-75 CNS
# protocol-notes: NCI tumour cell line growth inhibition, 48 h
I'd be grateful if you could share measured TGI for these entries.

Some compounds with recorded TGI:
CC(C)(C)N1C(=O)N=[N+](/C(=C(\c2ccccc2)n2nc([O-])n(C(C)(C)C)c2=O)c2ccccc2)C1=O | > 100 µM
COc1ccccc1NCc1nnc(CCCCCCCCc2nnc(CNc3ccccc3OC)o2)o1 | > 100 µM

Please examine the following record next.
Provide TGI value for the following compound: CC(=O)Oc1cc2oc(=O)cc(C)c2cc1OC(C)=O > 100 µM

---

# System: MDA-MB-435
Use one of these outcomes when replying: active, inactive

Field: example entries. Status: answers known.
COc1ccccc1N1CCN(CC(O)COc2c(Br)c(Br)c(Br)c3c2OC(C)(C)C3)CC1 (centres undefined) | inactive
Cc1ccc(-c2c3c(nn2-c2ccc(S(=O)(=O)NC(=O)Nc4ccccc4)cc2)-c2ccccc2C3)cc1 | inactive
O=C(Nc1ccc(OCc2nnc(-c3ccc(Cl)cc3)o2)c(F)c1)Nc1ccc(Cl)c(Cl)c1 | inactive

Then this compound:
# lookup: test call for CCCc1n(Cc2ccc3ccccc3c2)c2ccccc2[n+]1Cc1ccc2ccccc2c1 active

Just for reference, PubChem BioAssay (NCI) is where these values come from.
